Here the recorded Approximate Solubility in Excipient: Cottonseed oil is given for each entry.
protocol: Solubility determination in oil (cottonseed oil, sesame oil), HPLC
setupConditions: Heating Temp. 60 °C, Obs. Temp. 25 °C

molecule	reportedResult
C=C1CC[C@@]2(O)C3Cc4ccc(OC(=O)CCCCCCC/C=C\C/C=C\CCCCC)c5c4[C@@]2(CCN3CC2CC2)[C@H]1O5 [Compound 37]	68.5 to 82 mg/mL
CCCCC/C=C\C/C=C\CCCCCCCC(=O)Oc1ccc2c3c1O[C@H]1C(=O)CC[C@@]4(O)C(C2)N(CC2CC2)CC[C@]314 [Compound 53]	>408.5 mg/mL
C=C1CC[C@@]2(O)C3Cc4ccc(OC(=O)CCCCCCCCCCC)c5c4[C@@]2(CCN3CC2CC2)[C@H]1O5 [Compound 59, reference compound]	>414 mg/mL

Here's the next entry for you.
Using the record for CCCCCCCC/C=C/CCCCCCCC(=O)OCOc1ccc2c3c1O[C@H]1C(=O)CC[C@@]4(O)C(C2)N(CC2CC2)CC[C@]314 [Compound 26] , report its Approximate Solubility in Excipient: Cottonseed oil.
204.3 to 239 mg/mL
